- Read-out: Basic fibroblast growth factor (bFGF), FGF2 (gene 2247)
- METHOD DESCRIPTION: BSK_MyoF_bFGF: BioMAP Diversity Plus: MyoF Assay for Basic fibroblast growth factor (bFGF) Biomarker Activity (AID 2284246)
- MEASUREMENT PARAMETERS: primary human lung fibroblasts
Calls of active or inactive are those of the source. The calls were made as follows: active = hit-call score of the fitted dose curve at least 0.9, where 1 is the maximum; inactive = score below 0.9.
EXPERIMENTAL READOUT: AC50

[
  {
    "QUERY SMILES": "FC(F)(I)C(F)(F)C(F)(F)C(F)(F)C(F)(F)C(F)(F)I",
    "REPORTED MEASUREMENT": "8.27 µM (active) [middle of 5 runs]"
  },
  {
    "QUERY SMILES": "OCCC(F)(F)C(F)(F)C(F)(F)C(F)(F)C(F)(F)C(F)(F)F",
    "REPORTED MEASUREMENT": "inactive"
  },
  {
    "QUERY SMILES": "CCCCCCCCCCCCCC[N+](C)(C)C",
    "REPORTED MEASUREMENT": "4.65 µM (active)"
  },
  {
    "QUERY SMILES": "C=C(C)C(=O)OCCC(F)(F)C(F)(F)C(F)(F)C(F)(F)C(F)(F)C(F)(F)F",
    "REPORTED MEASUREMENT": "inactive"
  }
]
